Numbers sourced from patent US5585491A.

Listing of entries alongside the reported log10(MIC).
- Tested on: Streptococcus faecalis MGH-2
- assay-method-text: In vitro antibacterial activity, microtitration dilution method (MIC)
- Assay type: cell-based
- assay-context: Enterococcus faecalis, MGH2; Streptococcus faecalis MGH-2, microtitration dilution; read-out: Minimal Inhibitory Concentration MIC
Units before log transform: µg/mL; reported quantity: MIC; transform: log10.

Here are 6 molecules together with their reported answers.
Cc1c(F)c(N2CCC(N)C2)cc2c1c(=O)c(C(=O)O)cn2-c1ccc(F)cc1F (stereo not drawn) [Ex. 17c] : -1.00
Cc1c(F)c(N2CC(C)NC(C)C2)c(F)c2c1c(=O)c(C(=O)O)cn2-c1ccc(F)cc1F (stereo not drawn) [Ex. 14a] : 0.20
Cc1c(F)c(N2CCC(N)C2)nc2c1c(=O)c(C(=O)O)cn2C1CC1 (stereo not drawn) : -1.30
CCNCC1CCN(c2c(F)c(C)c3c(=O)c(C(=O)O)cn(C4CC4)c3c2F)C1 (stereo not drawn) : -1.60
Cc1c(F)c(N2CCNCC2)c(Cl)c2c1c(=O)c(C(=O)O)cn2C1CC1 : -0.70
Cc1c(F)c(N2CCNCC2)cc2c1c(=O)c(C(=O)O)cn2C1CC1 : -1.30

Recorded log10(MIC) of Cc1c(F)c(N2CCNC(C)C2)cc2c1c(=O)c(C(=O)O)cn2-c1ccc(F)cc1F (stereo not drawn) [Ex. 17a] , please. -0.40

Which log10(MIC) is reported for this molecule? Cc1c(F)c(N2CCC(C)(CN)C2)cc2c1c(=O)c(C(=O)O)cn2-c1ccc(F)cc1F (stereo not drawn) [Ex. 17e] -0.70

// log10(MIC) lookup, key: Cc1c(F)c(N2CCNCC2)c(F)c2c1c(=O)c(C(=O)O)cn2-c1ccc(F)cc1F -0.40

###

Below, each entry is listed with its recorded MIC.
- Tested on: Streptococcus pneumoniae SV-1
- assay-method-text: In vitro antibacterial activity, microtitration dilution method (MIC)
- Format: cell-based
- assay-context: SV1; Streptococcus pneumoniae SV-1, microtitration dilution; read-out: Minimal Inhibitory Concentration MIC
Give the quantity in µg/mL, number only.

Cc1c(F)c(N2CCNC(C)C2)cc2c1c(=O)c(C(=O)O)cn2-c1ccc(F)cc1F (stereo not drawn) [Ex. 17a] : 0.05
Cc1c(F)c(N2CCNCC2)c(F)c2c1c(=O)c(C(=O)O)cn2-c1ccc(F)cc1F [Ex. 14] : 0.4
Cc1c(F)c(N2CCNC(C)C2)c(F)c2c1c(=O)c(C(=O)O)cn2C1CC1 (stereo not drawn) [Ex. 5] : 0.025
Cc1c(F)c(N2CCC(N)C2)c(F)c2c1c(=O)c(C(=O)O)cn2-c1ccc(F)cc1F (stereo not drawn) [Ex. 15] : 0.1
Cc1c(F)c(N2CC(C)NC(C)C2)c(F)c2c1c(=O)c(C(=O)O)cn2-c1ccc(F)cc1F (stereo not drawn) [Ex. 14a] : 0.8

As a next step, examine the compound that follows.
Look up MIC for this compound: Cc1c(F)c(N2CCC(C)(CN)C2)cc2c1c(=O)c(C(=O)O)cn2C1CC1 (stereo not drawn) [Ex. 9] 0.006

###

- Test system: Staphylococcus aureus UC-76
- assay-method-text: In vitro antibacterial activity, microtitration dilution method (MIC)
- Assay type: cell-based
- assay-context: UC76; Staphylococcus aureus UC-76, microtitration dilution; read-out: Minimal Inhibitory Concentration MIC
- Excerpt: Agents & Chemoth., 6, 124 (1974), which is incorporated herein by reference.
Reported log10(MIC) by item:
Parameter value (number): base-10 log of MIC in µg/mL.

The following compounds have reported results that may help.
Cc1c(F)c(N2CCNCC2)nc2c1c(=O)c(C(=O)O)cn2C1CC1 : -1.00
Cc1c(F)c(N2CCNCC2)cc2c1c(=O)c(C(=O)O)cn2-c1ccc(F)cc1F : -1.60
CCNCC1CCN(c2c(F)c(C)c3c(=O)c(C(=O)O)cn(C4CC4)c3c2F)C1 (centres unmarked) : -2.52

Record request: log10(MIC) value, item Cc1c(F)c(N2CC(C)NC(C)C2)cc2c1c(=O)c(C(=O)O)cn2-c1ccc(F)cc1F (centres unmarked) [Ex. 17b] -1.30

For the compound shown here, Cc1c(F)c(N2CCNCC2)c(F)c2c1c(=O)c(C(=O)O)cn2-c1ccc(F)cc1F , give the reported log10(MIC). -1.30

Any idea what its log10(MIC) is? The compound is Cc1c(F)c(N2CCC(C)(CN)C2)cc2c1c(=O)c(C(=O)O)cn2-c1ccc(F)cc1F (centres unmarked) [Ex. 17e] -1.89

State the recorded log10(MIC) for this entry: Cc1c(F)c(N2CCC(N)C2)nc2c1c(=O)c(C(=O)O)cn2-c1ccc(F)cc1F (centres unmarked) -1.89

# lookup: log10(MIC) of Cc1c(F)c(N2CCNC(C)C2)cc2c1c(=O)c(C(=O)O)cn2C1CC1 (centres unmarked) -1.60
